Target: Concanavalin-A (Canavalia ensiformis) (UniProt P02866)
Sequence (P02866 whole entry, looked up): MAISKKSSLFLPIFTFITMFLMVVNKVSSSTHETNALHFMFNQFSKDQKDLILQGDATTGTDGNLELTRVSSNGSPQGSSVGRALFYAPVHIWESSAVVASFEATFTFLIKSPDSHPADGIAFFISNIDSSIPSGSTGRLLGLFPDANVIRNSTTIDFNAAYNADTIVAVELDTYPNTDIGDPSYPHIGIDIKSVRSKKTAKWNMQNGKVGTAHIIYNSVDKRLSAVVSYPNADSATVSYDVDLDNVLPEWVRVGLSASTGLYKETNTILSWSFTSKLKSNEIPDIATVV
Assay: compounds binding concanavalin A lectin – biochemical, small-molecule microarray, Alexa647 label, 635 nm, artefact control for SMM control protein annotation, primary screen (AID 1127);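 further: z combines 667 nm emission intensity with signal-to-noise across three replicate slides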
Conditions: ConA-A647 binding fluorescence, higher = more signal
measureName: composite z-score
# answer = number (no unit)

These solved cases illustrate the format of a correct answer.
Give composite z-score for the following compound: O=C1C2C=CC(C(O)c3cccs3)N(Nc3ccc([N+](=O)[O-])cc3)C2C(=O)N1c1ccccc1 (centres undefined)
0.585

Dear colleague, please send me the reported composite z-score for COC(=O)[C@@]1(Cc2ccc(OC)cc2)[C@H]2c3cc(C(=O)N4CCCC4)n(Cc4ccc(C(F)(F)F)nc4)c3C[C@H]2CN1C(=O)c1ccccc1 when you can.
-0.308

Item CC1CC/C=C\[C@H]2OC34C=CCN(Cn5nnc6ccccc65)C(=O)[C@H]3N(CCCCCCO)C(=O)[C@@H]4C2C(=O)O1 (some centres undefined) : provide composite z-score
0.257

Attention now shifts to the item below.
Name the recorded composite z-score of the compound listed here: C=C(CCCC)/C(=C/C[C@H](OC(=O)c1ccncc1)c1ccc(OCCO)cc1)c1cnc2ccccc2c1
1.13

* * *

// values below are reported composite z-score
Target: Albumin (Bos taurus)
Assay: compounds binding labelled BSA control protein – biochemical, small-molecule microarray, Alexa647 label, 635/667 nm fluorescence, artefact control for SMM control protein annotation, profiling panel (AID 1118);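 further: score merges 667 nm emission intensity and signal-to-noise per printed compound spot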
Details: BSA-A647 binding, fluorescence 635 nm, higher = more signal

Tell me composite z-score reported for CCCCCCc1nc(Cc2cc(OC)c(OC)c(OC)c2)cc2c1[Si](C(C)C)(C(C)C)O[C@H]2c1ccccc1
-0.261

Give a short answer stating reported composite z-score for O=C(O)[C@H](Cc1ccccc1)n1cc(C2(O)CCCCC2)nn1 .
0.568

Fill in reported composite z-score for this entry: O=C1OCCC=C[C@H]2OC34C=CCN(c5ccc6ccccc6c5)C(=O)[C@H]3N(CCO)C(=O)[C@@H]4C12 (some centres undefined)
-0.594

State, in one line, measured composite z-score of O=C1C2C=CC(C(O)c3cccs3)N(Nc3ccc([N+](=O)[O-])cc3)C2C(=O)N1c1ccccc1 (centres undefined)
0.523

Annotate the compound COC(=O)[C@@]1(Cc2ccc(OC)cc2)[C@H]2c3cc(C(=O)N4CCCC4)n(Cc4ccc(C(F)(F)F)nc4)c3C[C@H]2CN1C(=O)c1ccccc1 with its measured composite z-score.
0.948

Next:
# return recorded composite z-score for input COc1ccc(CCNC(=O)[C@@H]2c3ccccc3C(=O)N(Cc3ccccc3OC)[C@H]2c2ccc(CO)cc2)cc1
0.454

For the compound COCCn1c(C(=O)N(C)C)cc2c1C[C@H]1CN(C(=O)c3ccccc3)[C@@](Cc3ccc(OC)cc3)(C(=O)OC)[C@@H]21 , give its measured composite z-score value.
0.507

Report measured composite z-score; entry is CCCCC(O)C1C=CC2C(=O)N(c3ccccc3)C(=O)C2N1Nc1ccccc1 (centres undefined)
0.901

* * *

Assay: growth effects on S. cerevisiae YJM789 – YJM789 clinical isolate, OD600, 24 h, basal, primary screen (AID 1089);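 further: growth of clinical yeast isolate S. cerevisiae YJM 789 seeded 1000 cells per well; test concentration not given here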
Conditions: higher = more signal, called active from +8 up or from −8 down
Reported z-score is given for each of the following compounds.
The answer should be a number; do not append a unit.

Here's what some known entries look like.
For COc1cc(C(O)C2C=CC3C(=O)N(c4ccccc4)C(=O)C3N2Nc2ccccc2F)cc(OC)c1OC (stereo unspecified) , write its z-score.
0.785

Identify the reported z-score for the following entry. COc1ccc(C(O)C2C=CC3C(=O)N(C)C(=O)C3N2N(c2ccccc2)c2ccccc2)cc1 (stereo unspecified)
-0.054

State its z-score for this compound: CC(C)N1C(=O)c2ccccc2[C@@H](C(=O)NCC(F)(F)F)[C@@H]1c1ccc(CO)cc1
0.125

Give the value of z-score reported for the following: O=C1OCCC=C[C@H]2OC34C=CCN(c5ccc6ccccc6c5)C(=O)[C@H]3N(CCO)C(=O)[C@@H]4C12 (stereo partly specified)
-0.735

Specify z-score for CN(C)CCCNC(=O)[C@@]1(Cc2ccccc2I)c2ccccc2C(=O)N(C2CCCCC2)[C@H]1c1ccc(CO)cc1 and stop.
0.273

Return reported z-score. Input compound: CN(C)c1ccc(C(O)C2C=CC3C(=O)N(Cc4ccccc4)C(=O)C3N2n2cnnc2)cc1 (stereo unspecified)
-1.24

Respond only with z-score recorded for COC(=O)[C@@]1(Cc2ccc(F)cc2)[C@H]2c3cc(C(=O)N4CCCC4)n(Cc4cc(F)cc5c4OCOC5)c3C[C@H]2CN1C(=O)c1ccccc1
0.494

Name the recorded z-score of the item C=C(CCCC)/C(=C/C[C@H](OC(=O)c1ccncc1)c1cccc(OCCO)c1)c1cnc2ccccc2c1 in your answer.
-0.664

Others:
Supply measured z-score of CN(C)CCCNC(=O)[C@@H]1c2ccccc2C(=O)N(Cc2ccccc2C(F)(F)F)[C@H]1c1ccc(CO)cc1 in your reply.
0.0389

Tell us which z-score value is on record for NC(=O)NCC#Cc1ccc2c(c1)[C@]1(C(=O)N2)[C@H](c2ccc(OCCO)cc2)N2[C@H](c3ccccc3)[C@H](c3ccccc3)OC(=O)[C@H]2[C@@H]1C(=O)NC[C@H](O)c1ccccc1
2.87

Identify measured z-score corresponding to C=C(COC)/C(=C/C[C@H](OC(C)=O)c1ccccc1OCCO)c1cc(C(=O)OC)ccc1OC
0.909

Give a short answer stating reported z-score for COc1ccc(C(O)C2C=CC3C(=O)N(c4ccccc4)C(=O)C3N2Nc2ccc(C#N)cc2)cc1OCc1ccccc1 (stereo unspecified) .
-0.598

Write down z-score measured for item CC(C)N1C(=O)C[C@@](C(=O)NCCN2CCOCC2)(c2ccc([N+](=O)[O-])cc2)[C@H]1c1ccc(CO)cc1
-1.77

Identify measured z-score associated with [N-]=[N+]=Nc1ccccc1C[C@@]1(C(=O)NCC(O)CO)N=C(c2ccc(OCCCO)cc2)O[C@@H]1c1ccccc1 (stereo partly specified)
-0.558

Specify measured z-score for C=C(CCCC)/C(=C/C[C@H](OC(=O)c1ccncc1)c1ccccc1OCCO)c1cc(C(=O)OC)ccc1OC .
0.47

Please look at this compound and report its z-score: CCCC=C(CCC)[C@@H](NC(=O)OCC(C)C)c1ccc(C(=O)OC)cc1
-0.245
